- assayed-system: T1, Sortilin-6His (Homo sapiens (Human), UniProt Q99523 78-755)
- T1 construct: In MST it was labelled non-covalently with RED-tris-NTA; also called soluble ectodomain of sortilin-6his; fluorescent sortilin-6his
- T1 sequence (Q99523 78-755 V650M limits assumed): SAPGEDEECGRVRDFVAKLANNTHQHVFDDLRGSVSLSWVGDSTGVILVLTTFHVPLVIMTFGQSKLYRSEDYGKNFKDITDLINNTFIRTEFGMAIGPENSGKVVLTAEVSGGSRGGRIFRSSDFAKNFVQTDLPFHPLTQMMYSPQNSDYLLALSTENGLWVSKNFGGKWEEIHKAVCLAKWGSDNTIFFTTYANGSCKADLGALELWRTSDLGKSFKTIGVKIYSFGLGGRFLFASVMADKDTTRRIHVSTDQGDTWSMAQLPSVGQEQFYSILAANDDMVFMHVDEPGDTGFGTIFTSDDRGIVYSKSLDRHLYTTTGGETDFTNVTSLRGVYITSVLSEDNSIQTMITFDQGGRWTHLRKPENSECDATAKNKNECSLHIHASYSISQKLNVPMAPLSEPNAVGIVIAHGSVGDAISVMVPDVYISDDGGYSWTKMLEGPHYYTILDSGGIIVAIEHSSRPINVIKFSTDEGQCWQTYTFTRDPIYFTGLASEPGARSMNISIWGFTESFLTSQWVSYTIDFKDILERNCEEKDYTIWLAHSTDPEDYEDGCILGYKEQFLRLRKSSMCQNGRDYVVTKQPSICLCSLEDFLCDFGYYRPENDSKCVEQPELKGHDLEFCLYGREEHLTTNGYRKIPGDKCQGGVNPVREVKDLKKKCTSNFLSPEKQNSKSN
- experiment-description: MST on labelled sortilin-6his ectodomain; KD score: ++ <100 nM, + 100-2000 nM
*: point of attachment. Biotin = O=C1N[C@H]2[C@H](CS[C@H]2CCCCC(=O)*)N1
reported-property: KD

binder="Biotin-GGSGGGGSGGGFQLL-OH (SMILES CC(C)C[C@H](NC(=O)[C@H](CC(C)C)NC(=O)[C@H](CCC(N)=O)NC(=O)[C@H](Cc1ccccc1)NC(=O)CNC(=O)CNC(=O)CNC(=O)[C@H](CO)NC(=O)CNC(=O)CNC(=O)CNC(=O)CNC(=O)[C@H](CO)NC(=O)CNC(=O)CNC(=O)CCCC[C@@H]1SC[C@@H]2NC(=O)N[C@@H]21)C(=O)O) [Biotin-GGSGGGGSGGGFQLL-OH]" reported_value="100 to 2000 nM"

Here is the next item to consider.
Q: Can you look up the measured KD of Biotin-GGSGGGGSGGGGSGGRQLL-OH (SMILES CC(C)C[C@H](NC(=O)[C@H](CC(C)C)NC(=O)[C@H](CCC(N)=O)NC(=O)[C@H](CCCNC(=N)N)NC(=O)CNC(=O)CNC(=O)[C@H](CO)NC(=O)CNC(=O)CNC(=O)CNC(=O)CNC(=O)[C@H](CO)NC(=O)CNC(=O)CNC(=O)CNC(=O)CNC(=O)[C@H](CO)NC(=O)CNC(=O)CNC(=O)CCCC[C@@H]1SC[C@@H]2NC(=O)N[C@@H]21)C(=O)O, also called degrader) [Biotin-GGSGGGGSGGGGSGGRQLL-OH] for me?
Ans: 100 to 2000 nM
